tested on: biotinyl-Phe-oxazolone; assay: self-aminoacylation, catalytic enhancement (BFO) (fold over background); higher = more active; k-Seq, kA / k0A0; sequences stand for … in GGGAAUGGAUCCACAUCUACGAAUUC…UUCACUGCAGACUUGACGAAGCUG
Fewer inactive variants are shown than the library holds.
Dear colleague, classification is by self-aminoacylation, with ranges listed here: c1 (below 3), c2 (3 to below 6), c3 (6 or more)

Observe how each entry below is paired with its result.
>>> class_label("AAGUUAGCUAAUUGUCGCAAG [Fam3.1 aminoacylation ribozyme variant]")
"c1"
>>> class_label("AAGUUUGCUAAAAGUCGGAAG [Fam3.1 aminoacylation ribozyme variant]")
"c2"
>>> class_label("CUACUUCAAACAUUCGGUCUA [Fam1A.1 aminoacylation ribozyme variant]")
"c1"

query: Which category fits this record: AUUACCCUACUCAUCGAGUGA [Fam2.1 aminoacylation ribozyme variant]
result: c3

query: Which category fits this record: AUUCGCCUAGGUAAUCGGGUG [Fam2.2 aminoacylation ribozyme variant]
result: c3

query: Which category fits this record: AUUAACCUGGUCAUCGAGCGA [Fam2.1 aminoacylation ribozyme variant]
result: c1

query: Which category fits this record: AUUACGGUGGUCAUCGAGUGA [Fam2.1 aminoacylation ribozyme variant]
result: c2

query: Which category fits this record: AUGCACCUAGGUCAUCGUGUG [Fam2.2 aminoacylation ribozyme variant]
result: c2

----------
tested on: biotinyl-Val-oxazolone; assay: self-aminoacylation, catalytic enhancement (BVO) (fold over background); higher = more active; k-Seq, kA / k0A0; sequences stand for … in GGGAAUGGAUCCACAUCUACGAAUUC…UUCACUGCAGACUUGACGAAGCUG
Fewer inactive variants are shown than the library holds.
Dear colleague, classification is by self-aminoacylation, with ranges listed here: low group (below 2), middle group (2 to below 3), high group (3 or more)

>>> class_label("AUCACCCUGGUCAUCGAGUGU [Fam2.1 aminoacylation ribozyme variant]")
"high group"
>>> class_label("CUACUACAAACCAUCGGUCUG [Fam1A.1 aminoacylation ribozyme variant]")
"low group"
>>> class_label("AAUCGCCUAGGUCAUCGGGUG [Fam2.2 aminoacylation ribozyme variant]")
"high group"

query: Which category fits this record: CUACUUCCAACAAUCGGUGUG [Fam1A.1 aminoacylation ribozyme variant]
result: low group

query: Which category fits this record: CCAGACUUCGAGCAAUCGGUC [Fam1B.1 aminoacylation ribozyme variant]
result: middle group

query: Which category fits this record: AUUACCCUGCUCAGCGAGUGA [Fam2.1 aminoacylation ribozyme variant]
result: middle group

query: Which category fits this record: CAGUUUGCUAAUAGUUGCAAG [Fam3.1 aminoacylation ribozyme variant]
result: low group

query: Which category fits this record: AUUACCCCGGUCAUCGCGUGA [Fam2.1 aminoacylation ribozyme variant]
result: high group

query: Which category fits this record: AUUACCCUGGUCAUCGGGUGC [Fam2.1 aminoacylation ribozyme variant]
result: high group

query: Which category fits this record: AUUCAUCUAGGUCAUCUGGUG [Fam2.2 aminoacylation ribozyme variant]
result: middle group

query: Which category fits this record: AUUCACCUAGGUCAUCGGGGG [Fam2.2 aminoacylation ribozyme variant]
result: high group

query: Which category fits this record: ACACAUUUCAAGCAAUCGGUC [Fam1B.1 aminoacylation ribozyme variant]
result: low group

query: Which category fits this record: CUACUUCAAGCAAUCGGUGUG [Fam1A.1 aminoacylation ribozyme variant]
result: low group

query: Which category fits this record: AUUCACCUCGGACAUCGGGUG [Fam2.2 aminoacylation ribozyme variant]
result: high group

query: Which category fits this record: AUUCACCUAGGUCAUAGGGUG [Fam2.2 aminoacylation ribozyme variant]
result: low group

query: Which category fits this record: GCACACUUCAAGCACUCGGUC [Fam1B.1 aminoacylation ribozyme variant]
result: middle group

query: Which category fits this record: AUCCACCUAGGUCAUCGGGUA [Fam2.2 aminoacylation ribozyme variant]
result: high group

query: Which category fits this record: AUGCACCUAGGACAUCGGGUG [Fam2.2 aminoacylation ribozyme variant]
result: middle group

query: Which category fits this record: CCACACUGCAAGCAAUCGGUA [Fam1B.1 aminoacylation ribozyme variant]
result: middle group

query: Which category fits this record: AGCUUUGCUAAUAGUCGCAAG [Fam3.1 aminoacylation ribozyme variant]
result: middle group

query: Which category fits this record: ACGUUUGCUCAUAGUCGCAAG [Fam3.1 aminoacylation ribozyme variant]
result: low group

query: Which category fits this record: ACUACCCUGGUCAUCGAGUUA [Fam2.1 aminoacylation ribozyme variant]
result: middle group

query: Which category fits this record: AUUCACCUAGGCCAUCGGCUG [Fam2.2 aminoacylation ribozyme variant]
result: middle group

query: Which category fits this record: CUUCUGCAAACAAUCGGUCUG [Fam1A.1 aminoacylation ribozyme variant]
result: low group

query: Which category fits this record: GUUACCCUGGGCAUCGAGUGA [Fam2.1 aminoacylation ribozyme variant]
result: high group

query: Which category fits this record: AAGUGUGCUAAUAGUCGUAAG [Fam3.1 aminoacylation ribozyme variant]
result: low group
